- assaySummary: Inhibition of Bacillus subtilis NAD synthetase in presence of 0.001% Triton X-100 by fluorescence based assay
Kindly supply the reported pIC50 values for the records listed here.
Please keep in mind that pIC50 is minus log10 of the molar concentration; only the number is needed.

input: So what's the measured pIC50 for this one? C[N+](C)(C)[C@@H](Cc1ccccc1)C(=O)NCCCCCCCCOc1ccc(OCc2ccccc2)cc1
output: 4.56

input: What value of pIC50 has been reported for the following compound? C[N+](C)(C)[C@@H](Cc1ccccc1)C(=O)OCCCCCCCCOc1ccc(OCc2ccccc2)cc1
output: 4.78

----------
- assaySummary: Inhibition of yeast alcohol dehydrogenase in presence of 0.001% Triton X-100 by fluorescence based assay
- Design: species or system Saccharomyces cerevisiae
measureName: pIC50
// pIC50 here means minus log10 of the molar concentration (mol/L)

input: Find the recorded pIC50 belonging to C[N+](C)(C)[C@@H](Cc1ccccc1)C(=O)OCCCCCCCCOc1ccc(OCc2ccccc2)cc1 and report it.
output: 4.16
